- Test system: pyogenic streptococcus 119
- ASSAY_COMMENT: MIC against the infecting test organism
- Assay type: cell-based
- RECORDED_CONDITIONS: read-out: MIC
OBSERVABLE: MIC (µg/mL)
Answer format: numeric, µg/mL implied, no suffix.

COMPOUND	OBSERVABLE	VALUE_OBSERVED
CC[C@H]1OC(=O)[C@H](C)[C@@H](O[C@H]2C[C@@](C)(OC)[C@@H](O)[C@H](C)O2)[C@H](C)[C@@H](O[C@@H]2O[C@H](C)C[C@H](N(C)C)[C@H]2O)[C@](C)(O)C[C@@H](C)CN(C)[C@H](C)[C@@H](O)[C@]1(C)O [azithromycin, reference compound]	MIC	0.25

Exercise: # get_value(readout= MIC, system= pyogenic streptococcus 119) for COC1C(OC(C)=O)CC(=O)OC(C)C/C=C/C=C/C(OC2CCC(N(C)C)C(C)O2)C(C)CC(CC=O)C1OC1OC(C)C(OC2CC(C)(O)C(OC(=O)CC(C)C)C(C)O2)C(N(C)C)C1O (centres unmarked)
Key: 0.12

* * *

- Tested on: staphylococcus aureus21
- ASSAY_COMMENT: MIC against the infecting test organism
- Assay type: cell-based, staphylococcus aureus
- RECORDED_CONDITIONS: read-out: MIC
Each record here notes measured MIC.
Number in µg/mL, nothing else.

// below: answered molecules
MOLECULE	OBSERVABLE	MEASURE_UNIT	VALUE_OBSERVED
COC1C(O)CC(=O)OC(C)C/C=C/C=C/C(OC2CCC(N(C)C)C(C)O2)C(C)CC(CC=O)C1OC1OC(C)C(OC2CC(C)(O)C(OC(=O)CC(C)C)C(C)O2)C(N(C)C)C1O (centres unmarked) [Levoisovalerylspiramycin I, levoisovalerylspiramycin I]	MIC	µg/mL	0.5
CCC(=O)OC1CC(=O)OC(C)C/C=C/C=C/C(OC2CCC(N(C)C)C(C)O2)C(C)CC(CC=O)C(OC2OC(C)C(OC3CC(C)(O)C(OC(=O)CC(C)C)C(C)O3)C(N(C)C)C2O)C1OC (centres unmarked) [Levoisovalerylspiramycin III, levoisovalerylspiramycin III]	MIC	µg/mL	0.5
CC[C@H]1OC(=O)[C@H](C)[C@@H](O[C@H]2C[C@@](C)(OC)[C@@H](O)[C@H](C)O2)[C@H](C)[C@@H](O[C@@H]2O[C@H](C)C[C@H](N(C)C)[C@H]2O)[C@](C)(O)C[C@@H](C)CN(C)[C@H](C)[C@@H](O)[C@]1(C)O [azithromycin, reference compound]	MIC	µg/mL	4
COC1C(OC(C)=O)CC(=O)OC(C)C/C=C/C=C/C(OC2CCC(N(C)C)C(C)O2)C(C)CC(CC=O)C1OC1OC(C)C(OC2CC(C)(O)C(OC(=O)CC(C)C)C(C)O2)C(N(C)C)C1O (centres unmarked) [Levoisovalerylspiramycin II, levoisovalerylspiramycin II]	MIC	µg/mL	0.5

The record that follows has no MIC shown yet.
Exercise: What does the record list as MIC for CC[C@H]1OC(=O)[C@H](C)[C@@H](O[C@H]2C[C@@](C)(OC)[C@@H](O)[C@H](C)O2)[C@H](C)[C@@H](O[C@@H]2O[C@H](C)C[C@H](N(C)C)[C@H]2O)[C@](C)(O)C[C@@H](C)C(=O)[C@H](C)[C@@H](O)[C@]1(C)O [erythrocin, reference compound] ?
Key: 4

* * *

- Test system: streptococcus pneumoniae (112)
- ASSAY_COMMENT: Clinical isolates, agar double dilution method
- Format: cell-based
- RECORDED_CONDITIONS: 112 clinical isolates of streptococcus pneumoniae; read-out: MIC90
Here the recorded MIC90 is given for each entry.
Express the result in µg/mL but write the number alone.

// worked examples, MIC90 included
COMPOUND	MEASURE_UNIT	MIC90
CCC(=O)OC1CC(=O)OC(C)C/C=C/C=C/C(OC2CCC(N(C)C)C(C)O2)C(C)CC(CC=O)C(OC2OC(C)C(OC3CC(C)(O)C(OC(=O)CC(C)C)C(C)O3)C(N(C)C)C2O)C1OC (centres unmarked) [Levoisovalerylspiramycin III, levoisovalerylspiramycin III]	µg/mL	4
CC[C@H]1OC(=O)[C@H](C)[C@@H](O[C@H]2C[C@@](C)(OC)[C@@H](O)[C@H](C)O2)[C@H](C)[C@@H](O[C@@H]2O[C@H](C)C[C@H](N(C)C)[C@H]2O)[C@](C)(O)C[C@@H](C)CN(C)[C@H](C)[C@@H](O)[C@]1(C)O [azithromycin, reference compound]	µg/mL	8
CC[C@H]1OC(=O)[C@H](C)[C@@H](O[C@H]2C[C@@](C)(OC)[C@@H](O)[C@H](C)O2)[C@H](C)[C@@H](O[C@@H]2O[C@H](C)C[C@H](N(C)C)[C@H]2O)[C@](C)(O)C[C@@H](C)C(=O)[C@H](C)[C@@H](O)[C@]1(C)O [erythrocin, reference compound]	µg/mL	64
COC1C(O)CC(=O)OC(C)C/C=C/C=C/C(OC2CCC(N(C)C)C(C)O2)C(C)CC(CC=O)C1OC1OC(C)C(OC2CC(C)(O)C(OC(=O)CC(C)C)C(C)O2)C(N(C)C)C1O (centres unmarked) [Levoisovalerylspiramycin I, levoisovalerylspiramycin I]	µg/mL	2

Exercise: # query: MIC90 of entry COC1C(OC(C)=O)CC(=O)OC(C)C/C=C/C=C/C(OC2CCC(N(C)C)C(C)O2)C(C)CC(CC=O)C1OC1OC(C)C(OC2CC(C)(O)C(OC(=O)CC(C)C)C(C)O2)C(N(C)C)C1O (centres unmarked) [Levoisovalerylspiramycin II, levoisovalerylspiramycin II]
Key: 2

* * *

- Tested on: pyogenic streptococcus 119
- ASSAY_COMMENT: MIC against the infecting test organism
- Format: cell-based
- RECORDED_CONDITIONS: read-out: MIC
MIC by entry:
Write the number in µg/mL without appending the unit.

COMPOUND	MEASURE_UNIT	MIC
COC1C(O)CC(=O)OC(C)C/C=C/C=C/C(OC2CCC(N(C)C)C(C)O2)C(C)CC(CC=O)C1OC1OC(C)C(OC2CC(C)(O)C(OC(=O)CC(C)C)C(C)O2)C(N(C)C)C1O (stereo not drawn)	µg/mL	0.12

Exercise: Request the reported MIC associated with CCC(=O)OC1CC(=O)OC(C)C/C=C/C=C/C(OC2CCC(N(C)C)C(C)O2)C(C)CC(CC=O)C(OC2OC(C)C(OC3CC(C)(O)C(OC(=O)CC(C)C)C(C)O3)C(N(C)C)C2O)C1OC (stereo not drawn)
Key: 0.12

Exercise: // MIC lookup, key: CC[C@H]1OC(=O)[C@H](C)[C@@H](O[C@H]2C[C@@](C)(OC)[C@@H](O)[C@H](C)O2)[C@H](C)[C@@H](O[C@@H]2O[C@H](C)C[C@H](N(C)C)[C@H]2O)[C@](C)(O)C[C@@H](C)C(=O)[C@H](C)[C@@H](O)[C@]1(C)O [erythrocin, reference compound]
Key: 0.5

* * *

# Lookup of reported ED50 keyed by entry
- System: pyogenic streptococcus 119
- ASSAY_COMMENT: Curative effect on mouse with abdominal infection (ED50)
- Assay type: in vivo
- RECORDED_CONDITIONS: Streptococcus, 119, 168 h, pyogenic streptococcus 119, challenging dose 4.9 × 10^4 CFU/0.5 ml, deaths in 7 days, Bliss, read-out: ED50
Enter your answer as a number in mg/kg; do not include the unit.

COMPOUND	ED50 [mg/kg]
CC[C@H]1OC(=O)[C@H](C)[C@@H](O[C@H]2C[C@@](C)(OC)[C@@H](O)[C@H](C)O2)[C@H](C)[C@@H](O[C@@H]2O[C@H](C)C[C@H](N(C)C)[C@H]2O)[C@](C)(O)C[C@@H](C)C(=O)[C@H](C)[C@@H](O)[C@]1(C)O [erythrocin, reference compound]	234
COC1C(O)CC(=O)OC(C)C/C=C/C=C/C(OC2CCC(N(C)C)C(C)O2)C(C)CC(CC=O)C1OC1OC(C)C(OC2CC(C)(O)C(OC(=O)CC(C)C)C(C)O2)C(N(C)C)C1O (stereo not drawn)	57.2

Now turn to the next compound.
Exercise: pyogenic streptococcus 119 / ED50 / COC1C(OC(C)=O)CC(=O)OC(C)C/C=C/C=C/C(OC2CCC(N(C)C)C(C)O2)C(C)CC(CC=O)C1OC1OC(C)C(OC2CC(C)(O)C(OC(=O)CC(C)C)C(C)O2)C(N(C)C)C1O (stereo not drawn) : value?
Key: 52.8

* * *

# maps each entry to its LD50 at 1 week
- ASSAY_COMMENT: Acute toxicity on mice via oral administration
- RECORDED_CONDITIONS: mouse, in vivo, po, 4000 mg/kg

Exercise: What value of measured LD50 at 1 week is listed for COC1C(O)CC(=O)OC(C)C/C=C/C=C/C(OC2CCC(N(C)C)C(C)O2)C(C)CC(CC=O)C1OC1OC(C)C(OC2CC(C)(O)C(OC(=O)CC(C)C)C(C)O2)C(N(C)C)C1O (stereo not drawn) [Levoisovalerylspiramycin I, levoisovalerylspiramycin I] ?
Key: > 4000 mg/kg

Exercise: LD50 at 1 week lookup needed for CCC(=O)OC1CC(=O)OC(C)C/C=C/C=C/C(OC2CCC(N(C)C)C(C)O2)C(C)CC(CC=O)C(OC2OC(C)C(OC3CC(C)(O)C(OC(=O)CC(C)C)C(C)O3)C(N(C)C)C2O)C1OC (stereo not drawn) [Levoisovalerylspiramycin III, levoisovalerylspiramycin III] , thanks.
Key: > 4000 mg/kg

Exercise: Recorded LD50 at 1 week of COC1C(OC(C)=O)CC(=O)OC(C)C/C=C/C=C/C(OC2CCC(N(C)C)C(C)O2)C(C)CC(CC=O)C1OC1OC(C)C(OC2CC(C)(O)C(OC(=O)CC(C)C)C(C)O2)C(N(C)C)C1O (stereo not drawn) [Levoisovalerylspiramycin II, levoisovalerylspiramycin II] , please.
Key: > 4000 mg/kg
